All figures here come from the supplement of paper PMC9112550.

system: Escherichia coli TOP10; experiment: shrunken log2 fold change of peptide-encoding DNA abundance (4.5 h post-induction vs induction); higher = less antimicrobial activity (less host growth inhibition); conditions: time post-induction: 4.5 h; library: site-saturation at positions 5, 18, 19, 20;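 note: peptides expressed intracellularly from a pBAD plasmid library in pooled LB shake-flask culture, induced with 0.3% L-arabinose, DNA abundance read by NGS, three biological replicates, DESeq2 with apeglm shrinkage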
value-kind: shrunken log2 fold change
Lab note: jot the number down without any unit.

The following sequences have reported results that may help.
sequence_entry=RRIRYRPPRLPRPRPRPAYTPRP target_system="Escherichia coli TOP10" numeric_readout=-0.222
sequence_entry=RRIRCRPPRLPRPRPRPNVFPRP target_system="Escherichia coli TOP10" numeric_readout=-0.24
sequence_entry=RRIRLRPPRLPRPRPRPNNRPRP target_system="Escherichia coli TOP10" numeric_readout=-0.79

# query: shrunken log2 fold change of entry RRIRPRPPRLPRPRPRPQCPPRP
-0.172

Again, but for RRIRSRPPRLPRPRPRPISKPRP
-0.211

Also, RRIRGRPPRLPRPRPRPQFLPRP please.
-0.0259
